- experiment: in vivo
- experimental.conditions: female, C3H/HeN, mouse, plasma, intraperitoneal, 80 umol/kg

# compound.structure, AUC, µM·h
rows = [
    ("Cc1ccc2c(=O)c3cccc(CC(=O)O)c3oc2c1C", 3630),
]

----------
- experiment: in vivo
- experimental.conditions: female, C3H/HeN, mouse, plasma, intraperitoneal, 23.7 umol/kg

# compound, AUC [µM·h]
rows = [
    ("CC(=O)O[C@H]1C(=O)[C@@]2(C)[C@H]([C@H](OC(=O)c3ccccc3)[C@]3(O)C[C@H](OC(=O)[C@H](O)[C@@H](NC(=O)c4ccccc4)c4ccccc4)C(C)=C1C3(C)C)[C@]1(OC(C)=O)CO[C@@H]1C[C@@H]2O [paclitaxel]", 18.8),
]
